These data points were gathered from patent US10144733B2.

# Measured on: αvβ3 (Homo sapiens, UniProt P05106+P06756)
# Construct: expressed in transfected cells; host or cells: K562
# Sequence (P06756 31-889 limits assumed): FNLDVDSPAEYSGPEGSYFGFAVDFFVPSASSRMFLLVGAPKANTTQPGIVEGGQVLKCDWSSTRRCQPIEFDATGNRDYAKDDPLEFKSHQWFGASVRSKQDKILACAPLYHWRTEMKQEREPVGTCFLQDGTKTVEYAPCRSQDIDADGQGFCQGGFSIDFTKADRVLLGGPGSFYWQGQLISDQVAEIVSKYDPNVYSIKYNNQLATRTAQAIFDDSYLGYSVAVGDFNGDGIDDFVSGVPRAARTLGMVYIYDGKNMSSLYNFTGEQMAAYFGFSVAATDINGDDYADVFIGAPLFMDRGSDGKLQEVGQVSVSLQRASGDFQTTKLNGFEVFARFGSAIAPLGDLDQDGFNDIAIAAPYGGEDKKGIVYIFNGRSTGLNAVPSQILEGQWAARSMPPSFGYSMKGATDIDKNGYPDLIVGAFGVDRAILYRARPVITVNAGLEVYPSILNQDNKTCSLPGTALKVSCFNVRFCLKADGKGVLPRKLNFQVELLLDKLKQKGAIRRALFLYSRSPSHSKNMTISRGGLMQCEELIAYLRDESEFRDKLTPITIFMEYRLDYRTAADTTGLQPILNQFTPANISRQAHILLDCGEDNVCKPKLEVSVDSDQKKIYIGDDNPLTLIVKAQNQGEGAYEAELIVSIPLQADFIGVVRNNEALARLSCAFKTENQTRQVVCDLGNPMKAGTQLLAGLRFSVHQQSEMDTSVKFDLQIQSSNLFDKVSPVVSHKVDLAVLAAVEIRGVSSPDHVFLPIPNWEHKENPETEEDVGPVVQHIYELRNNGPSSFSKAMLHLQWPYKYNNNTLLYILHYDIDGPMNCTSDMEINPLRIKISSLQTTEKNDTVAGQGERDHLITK
# Sequence (P06756 891-1048 partner limits assumed): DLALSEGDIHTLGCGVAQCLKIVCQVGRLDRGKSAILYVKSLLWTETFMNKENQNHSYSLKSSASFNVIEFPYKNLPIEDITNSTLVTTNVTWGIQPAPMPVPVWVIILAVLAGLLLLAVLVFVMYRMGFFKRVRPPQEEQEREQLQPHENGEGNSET
# Sequence (P05106 27-788): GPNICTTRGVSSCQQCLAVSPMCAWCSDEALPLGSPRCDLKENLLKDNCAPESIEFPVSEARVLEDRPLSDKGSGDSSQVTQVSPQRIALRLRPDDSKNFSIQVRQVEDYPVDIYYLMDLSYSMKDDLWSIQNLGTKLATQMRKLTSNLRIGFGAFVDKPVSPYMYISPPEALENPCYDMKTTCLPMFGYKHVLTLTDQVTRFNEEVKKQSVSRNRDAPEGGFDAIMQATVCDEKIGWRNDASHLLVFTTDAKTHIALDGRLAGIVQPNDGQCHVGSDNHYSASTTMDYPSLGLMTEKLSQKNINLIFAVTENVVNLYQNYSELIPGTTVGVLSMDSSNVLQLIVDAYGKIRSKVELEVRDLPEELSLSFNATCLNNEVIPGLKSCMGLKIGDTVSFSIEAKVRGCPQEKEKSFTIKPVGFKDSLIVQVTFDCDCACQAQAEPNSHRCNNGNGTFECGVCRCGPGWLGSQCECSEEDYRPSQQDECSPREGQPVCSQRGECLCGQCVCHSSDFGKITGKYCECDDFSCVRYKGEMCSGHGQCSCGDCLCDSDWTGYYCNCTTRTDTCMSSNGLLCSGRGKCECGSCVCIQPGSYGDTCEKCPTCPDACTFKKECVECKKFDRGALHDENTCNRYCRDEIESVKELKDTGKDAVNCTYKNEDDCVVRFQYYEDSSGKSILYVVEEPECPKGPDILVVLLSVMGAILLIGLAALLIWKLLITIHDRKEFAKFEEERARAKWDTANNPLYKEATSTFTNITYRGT
# Experiment notes: Cell Adhesion Assay K562-αvβ3 (LAP-b1)
# Assay type: cell-based
# Recorded conditions: K562-αvβ3 cells, ligand LAP-b1, 2 mM MgCl2; read-out: mean affinity (pIC50) αvβ3 (converted)
# Procedure: The following cell lines were used, with ligands in brackets: K562-α5β1 (Fibronectin), K562-αvβ3 (LAP-b1), K562-αvβ5 (Vitronectin), K562-αvβ6 (LAP-b1), K562-αvβ8 (LAP-b1). The divalent cation used to facilitate adhesion was 2 mM MgCl2. Adhesion was quantified by cell labelling with the fluorescent dye BCECF-AM (Life Technologies), where cell suspensions at 3×10^6 cells/mL were incubated with […] of 30 mM BCECF-AM at 37° C. for 10 minutes, before dispensing into the assay plate. […]
Catalogue of compounds with associated IC50
Unit nM implied. Number only.

Consider the worked cases shown below.
# Compound, IC50 / nM
data = [
    ("Cc1cc(CO)nn1-c1cccc(C(CC(=O)O)CN2CC[C@@H](CCc3ccc4c(n3)NCCC4)C2)c1 (single isomer, unassigned)", 631),
    ("Cc1cc(C(C)(C)O)nn1-c1cccc(C(CC(=O)O)CN2CC[C@@H](CCc3ccc4c(n3)NCCC4)C2)c1 (single isomer, unassigned)", 3980),
    ("O=C(O)CC(CN1CC[C@@H](CCc2ccc3c(n2)NCCC3)C1)c1cccc(-n2ccc(C(F)(F)F)n2)c1 (stereo partly shown)", 631),
]

IN: Item under review: Cc1cc(CF)nn1-c1cccc(C(CC(=O)O)CN2CC[C@@H](CCc3ccc4c(n3)NCCC4)C2)c1 (stereo partly shown) . Reported IC50?
OUT: 1260
